- protocol_details: folding enthalpy; higher = less favourable; fluorescence melt of hairpins on a sequencing array, two-state fit
- experimental_parameters: sodium 0.088 M
Class TRUE: folding enthalpy at least -20 kcal/mol. Class FALSE: folding enthalpy below -20 kcal/mol.

Completed entries (count: 6):
* GATCGGCATACCGATC ((((((....)))))) | FALSE
* GATCTTAAAGAAGATC ((((((....)))))) | TRUE
* GTCGCAGGAAACTGCAAC ((.((((....)))).)) | TRUE
* GTCGTTGGAAACAGTGAC (((..((....))..))) | TRUE
* GGCAATGAAAATTGCC ((((((....)))))) | FALSE
* GTGAGCCCGAAAGGGCAC (((..(((....)))))) | TRUE

// query Could you verify whether the entry GACCTCCCGAAAGGGGTC (((..(((....)))))) shows folding enthalpy of no less than -20 kcal/mol?
// result TRUE

// query Quick one: GCGTTCGGAAACGGATGC ((.(.((....)).).))
// result FALSE

// query Now give it for GCTCCGCCGAAAGGCAGC (((..(((....)))))) too.
// result TRUE

// query Next: GACTGGGGAAACCCAGCC (.(((((....))))).)
// result TRUE

// query Next: GATGAGACGAAAGTCATC (((..(((....))))))
// result TRUE

// query # iterate: GTTTCGCGAAAGCGGAAC (((.(((....))).)))
// result FALSE

// query Follow-up entry: GAAGACGAAAGTCGTTTC ((((((....)))..)))
// result TRUE

// query Do the same for GATCCTGACAGGATC ((((((...)))))) please
// result FALSE

// query Param item: GCCACGGGAAACTGTGGC (((((.(....).)))))
// result FALSE

// query Further, for GCTTGAGGAAACCCAAGC (((((.(....).))))) ?
// result FALSE
